# System: T1, whole KDR-ECD (Cat. # 676490, Calbiochem) (human, UniProt P35968 20-764)
# T1 construct: extracellular domain; Bought soluble protein; also called soluble KDR; VEGF Receptor 2 D1-7
# T1 sequence (P35968 20-764): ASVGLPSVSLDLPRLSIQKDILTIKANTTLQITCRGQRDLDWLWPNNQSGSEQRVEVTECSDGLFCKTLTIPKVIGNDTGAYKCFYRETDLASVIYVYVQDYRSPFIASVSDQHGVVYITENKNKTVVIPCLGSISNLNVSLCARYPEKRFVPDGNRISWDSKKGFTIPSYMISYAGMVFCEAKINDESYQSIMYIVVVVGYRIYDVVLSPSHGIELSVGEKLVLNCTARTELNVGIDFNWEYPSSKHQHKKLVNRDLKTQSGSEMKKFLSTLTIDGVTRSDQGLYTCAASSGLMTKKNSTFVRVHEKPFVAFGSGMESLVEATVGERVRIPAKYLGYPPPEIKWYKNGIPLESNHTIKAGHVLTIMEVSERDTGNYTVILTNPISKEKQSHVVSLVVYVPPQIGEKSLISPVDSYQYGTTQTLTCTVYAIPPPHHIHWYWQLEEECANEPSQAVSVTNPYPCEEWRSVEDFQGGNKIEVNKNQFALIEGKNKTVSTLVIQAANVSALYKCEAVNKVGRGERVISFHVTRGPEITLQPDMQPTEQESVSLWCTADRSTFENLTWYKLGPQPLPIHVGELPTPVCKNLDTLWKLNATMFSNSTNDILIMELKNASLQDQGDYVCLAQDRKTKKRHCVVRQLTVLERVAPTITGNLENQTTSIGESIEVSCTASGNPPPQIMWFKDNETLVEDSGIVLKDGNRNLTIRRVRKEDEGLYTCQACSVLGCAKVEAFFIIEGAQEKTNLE
# Method Summary: ELISA, KDR-ECD coat 5 ug/mL, antibody 0.1 ug/mL
Would you mind telling me the reported ELISA reading of each entry?

Provide the reported ELISA reading of each entry below, same order.
1. 21H6 (antibody, V domains shown, Fully human monoclonal antibody from a XenoMouse hybridoma, purified) VH: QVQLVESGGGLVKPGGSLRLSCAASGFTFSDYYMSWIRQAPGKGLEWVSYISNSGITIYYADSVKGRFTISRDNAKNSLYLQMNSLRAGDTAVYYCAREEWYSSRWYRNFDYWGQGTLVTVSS VL: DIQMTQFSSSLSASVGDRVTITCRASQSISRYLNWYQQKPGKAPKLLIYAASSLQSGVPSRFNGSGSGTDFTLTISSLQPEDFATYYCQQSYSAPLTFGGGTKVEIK
2. 33E1 (antibody, V domains shown, Fully human monoclonal antibody from a XenoMouse hybridoma (IgG2 or IgG4 strain), purified) VH: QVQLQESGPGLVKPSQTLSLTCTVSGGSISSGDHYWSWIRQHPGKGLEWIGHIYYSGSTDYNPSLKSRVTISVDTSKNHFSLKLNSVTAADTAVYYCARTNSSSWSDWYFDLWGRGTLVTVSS VL: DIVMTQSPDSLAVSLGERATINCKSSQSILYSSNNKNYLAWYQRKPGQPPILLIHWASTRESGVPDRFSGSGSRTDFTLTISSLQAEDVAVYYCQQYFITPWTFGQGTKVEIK

[0.139, 0.205]

Any idea what its ELISA reading is? The binder is 32G7 (antibody, V domains shown, Fully human monoclonal antibody from a XenoMouse hybridoma (IgG2 or IgG4 strain), purified) VH: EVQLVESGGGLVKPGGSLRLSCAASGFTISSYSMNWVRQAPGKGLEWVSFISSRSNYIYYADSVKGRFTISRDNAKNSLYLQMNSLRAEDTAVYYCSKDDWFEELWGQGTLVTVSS VL: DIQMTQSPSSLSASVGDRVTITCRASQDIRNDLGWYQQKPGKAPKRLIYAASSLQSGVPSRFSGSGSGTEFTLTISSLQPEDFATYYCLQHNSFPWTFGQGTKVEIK 0.307
